Parameter pKi: see the listing below.
# Target: Neuropeptide Y receptor type 2 (Homo sapiens)
# Sequence (P49146 whole entry): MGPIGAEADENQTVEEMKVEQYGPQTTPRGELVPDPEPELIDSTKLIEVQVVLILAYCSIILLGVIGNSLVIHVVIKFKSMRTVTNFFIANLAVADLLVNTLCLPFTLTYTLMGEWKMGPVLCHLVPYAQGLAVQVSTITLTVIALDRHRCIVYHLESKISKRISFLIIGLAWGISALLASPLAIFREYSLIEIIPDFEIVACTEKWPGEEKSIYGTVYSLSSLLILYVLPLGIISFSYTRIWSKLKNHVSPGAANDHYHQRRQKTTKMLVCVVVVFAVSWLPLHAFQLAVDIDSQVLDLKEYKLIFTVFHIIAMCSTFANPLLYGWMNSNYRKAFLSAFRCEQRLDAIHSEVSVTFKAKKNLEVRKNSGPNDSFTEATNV
# Run Description: Displacement of [3H]UR-MK299 from human neuropeptide Y Y2 receptor expressed in CHO cells measured after 90 mins by scintillation counting analysis
# Assay type: cell-based
# Test Settings: read-out: Ki
pKi: −log10 of the molar value. Residues, ends and D or L forms follow the SMILES beside them.

Compound: CC(C)C[C@H](NC(=O)[C@H](CCCNC(=N)NC(=O)NCCCCN)NC(=O)[C@H](Cc1ccc(O)cc1)NC(=O)[C@H](CCCNC(=N)N)NC(=O)CCC(=O)O)C(=O)N[C@@H](CCCNC(=N)N)C(=O)N[C@@H](Cc1ccc(O)cc1)C(N)=O
Target: Neuropeptide Y receptor type 2 (Homo sapiens)
pKi: < 5.00
--
Compound: N=C(N)NCCC[C@@H]1NC(=O)CCC(=O)NCCCCNC(=O)NC(=N)NCCC[C@@H](C(=O)N[C@@H](Cc2c[nH]c3ccccc23)C(=O)N[C@@H](CCCNC(=N)N)C(=O)N[C@@H](Cc2ccc(O)cc2)C(N)=O)NC(=O)[C@H](Cc2ccc(O)cc2)NC1=O (HELM PEPTIDE1{R.Y.[N=C(NCCC[C@H](N[*:1])C(=O)[*:2])N[*:3]].W.R.Y.[am]}|CHEM1{[O=C(CCC(=O)[*:1])NCCCCNC(=O)[*:2]]}$PEPTIDE1,CHEM1,1:R1-1:R1|PEPTIDE1,CHEM1,3:R3-1:R2$$$V2.0)
Target: Neuropeptide Y receptor type 2 (Homo sapiens)
pKi: < 5.00
--
Compound: CC(C)C[C@H](NC(=O)[C@@H]1CCCNC(=N)NC(=O)NCCCCNC(=O)CCC(=O)N[C@@H](CCCNC(=N)N)C(=O)N[C@@H](Cc2c[nH]c3ccccc23)C(=O)N1)C(=O)N[C@@H](CCCNC(=N)N)C(=O)N[C@@H](Cc1ccc(O)cc1)C(N)=O
Target: Neuropeptide Y receptor type 2 (Homo sapiens)
pKi: < 5.00

----------
# Target: Neuropeptide Y receptor type 4 (Homo sapiens)
# Sequence (P50391 whole entry): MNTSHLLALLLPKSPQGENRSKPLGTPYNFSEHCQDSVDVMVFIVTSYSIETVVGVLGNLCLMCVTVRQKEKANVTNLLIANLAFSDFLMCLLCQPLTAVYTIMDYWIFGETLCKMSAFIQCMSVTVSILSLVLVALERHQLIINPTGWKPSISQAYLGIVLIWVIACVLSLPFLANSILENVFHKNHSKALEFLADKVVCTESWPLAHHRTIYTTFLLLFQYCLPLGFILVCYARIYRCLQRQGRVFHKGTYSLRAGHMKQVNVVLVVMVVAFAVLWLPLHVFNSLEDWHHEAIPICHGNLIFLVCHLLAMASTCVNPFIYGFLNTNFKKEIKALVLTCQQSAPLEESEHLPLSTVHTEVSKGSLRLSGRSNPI
# Run Description: Intrinsic activity at human neuropeptide Y Y4 receptor expressed in HEK293T-ARRB1 cells assessed as stimulation of beta-arrestin 1 recruitment by multimode plate reader relative to hPP
# Format: functional, cell-based
Active and inactive are the calls of the source. No cut-off for these calls is given here. Starred links: 1 amine or outer side, 2 acyl side, 3 side chain; linkers in the order of their positions; H or OH if unused. Residues, ends and D or L forms follow the SMILES beside them. Groups on a side chain read outwards from the residue. *: point of attachment. Suc = O=C(CCC(=O)[*:2])[*:1]; NH(CH2)4NH2 = NCCCCN*; CO = O=C([*:1])[*:2]; NH(CH2)3NH2 = NCCCN*

Compound: CC(C)C[C@H](NC(=O)[C@@H]1CCCNC(=N)NC(=O)NCCCCNC(=O)CCC(=O)N[C@@H](CCCNC(=N)N)C(=O)N1)C(=O)N[C@@H](CCCNC(=N)N)C(=O)N[C@@H](Cc1ccc(O)cc1)C(N)=O (HELM PEPTIDE1{R.[N=C(NCCC[C@H](N[*:1])C(=O)[*:2])N[*:3]].L.R.Y.[am]}|CHEM1{[O=C(CCC(=O)[*:1])NCCCCNC(=O)[*:2]]}$PEPTIDE1,CHEM1,1:R1-1:R1|PEPTIDE1,CHEM1,2:R3-1:R2$$$V2.0)
Target: Neuropeptide Y receptor type 4 (Homo sapiens)
Intrinsic activity: 87%

Compound: CC(C)C[C@H](NC(=O)[C@H](CCCNC(=N)NC(=O)NCCCCN)NC(=O)[C@H](CCCNC(=N)N)NC(=O)CCC(=O)O)C(=O)N[C@@H](CCCNC(=N)N)C(=O)N[C@@H](Cc1ccc(O)cc1)C(N)=O (Suc-RR([CO-NH(CH2)4NH2])LRY-NH2)
Target: Neuropeptide Y receptor type 4 (Homo sapiens)
Intrinsic activity: 71%

Compound: N=C(N)NCCC[C@H](NC(=O)CCC(=O)O)C(=O)N[C@@H](Cc1ccc(O)cc1)C(=O)N[C@@H](CCCNC(=N)NC(=O)NCCCN)C(=O)N[C@@H](Cc1c[nH]c2ccccc12)C(=O)N[C@@H](CCCNC(=N)N)C(=O)N[C@@H](Cc1ccc(O)cc1)C(N)=O (Suc-RYR([CO-NH(CH2)3NH2])WRY-NH2)
Target: Neuropeptide Y receptor type 4 (Homo sapiens)
Intrinsic activity: inactive

Compound: CC(C)C[C@H](NC(=O)[C@H](CCCNC(=N)N)NC(=O)[C@H](Cc1ccc(O)cc1)NC(=O)[C@H](CCCNC(=N)N)NC(=O)CCC(=O)O)C(=O)N[C@@H](CCCNC(=N)NC(=O)NCCCN)C(=O)N[C@@H](Cc1ccc(O)cc1)C(N)=O
Target: Neuropeptide Y receptor type 4 (Homo sapiens)
Intrinsic activity: inactive
